- Tested on: MCF7 breast cancer cell lines
- assay: Cell viability analysis, WST-8 assay, MCF7
- assay conditions: Homo sapiens, MCF7, 72 h, read-out: Cell viability (%) WST-8, MCF7, footnote d: concentration 1.1 µM, 72 hours
recorded endpoint: viability at 1.1 µM (%)
Express your answer in %, writing the number without its unit.

Query string: Quick one: viability at 1.1 µM of N#CCc1ccc(Nc2nc(Nc3cn[nH]c3)c3ccccc3n2)cc1 [compound 3f] ?
Result string: 117

Query string: Please give the result for O=S(=O)(c1ccccc1)N1CC2CC1CN2c1nc(Nc2cc(C3CC3)[nH]n2)c2ccccc2n1 (stereo not drawn) [compound 15m] too.
Result string: 111

Query string: Also need O=S(=O)(c1ccc(F)cc1F)N1CC2CC1CN2c1nc(Nc2cc(C3CC3)[nH]n2)c2ccccc2n1 (stereo not drawn) [compound 15o] , thanks.
Result string: 119

====

- assay: in vitro
- assay conditions: human, mcf10a cells
recorded endpoint: viability at 1 µM (%)
Report as a plain number; the unit % is understood.

Query string: # viability at 1 µM lookup, item c1ccc(CN2CC3CC2CN3c2nc(Nc3cn[nH]c3)c3ccccc3n2)cc1 (centres unmarked) [compound 28f]
Result string: 101

Query string: Can you check `C1=C(c2cccc3ccccc23)CCN(c2nc(Nc3cc(C4CC4)[nH]n3)c3ccccc3n2)C1` next?
Result string: 122

Query string: Same question, CCCc1ccc(S(=O)(=O)N2CC3CC2CN3c2nc(Nc3cc(C4CC4)[nH]n3)c3ccccc3n2)cc1 (centres unmarked) [compound 15x] this time
Result string: 98.3

Query string: Also `c1ccc2c(Nc3cc(C4CC4)[nH]n3)nc(N3CCC4(CC3)OCCO4)nc2c1` , if possible.
Result string: 20.9

Query string: Then what about the molecule `N#CCc1ccc(C2=CCN(c3nc(Nc4cc(C5CC5)[nH]n4)c4ccccc4n3)CC2)cc1F` ?
Result string: 116

Query string: Same for `Fc1ccccc1C1=CCN(c2nc(Nc3cc(C4CC4)[nH]n3)c3ccccc3n2)CC1`
Result string: 90.8

Query string: // repeat for CC(C)CN1CC2CC1CN2c1nc(Nc2cc(C3CC3)[nH]n2)c2ccccc2n1 (centres unmarked) [compound 15f] and report
Result string: 90.1

Query string: Then `FC(F)(F)c1cccc(C2=CCN(c3nc(Nc4cc(C5CC5)[nH]n4)c4ccccc4n3)CC2)c1` ?
Result string: 104

Query string: Lookup O=S(=O)(c1cccc(C(F)(F)F)c1)N1CC2CC1CN2c1nc(Nc2cc(C3CC3)[nH]n2)c2ccccc2n1 (centres unmarked) [compound 15u]
Result string: 121

Query string: Okay, and `CC(C)(C)OC(=O)N1CC=C(c2nc(Nc3cc(C4CC4)[nH]n3)c3ccccc3n2)CC1` ?
Result string: 54.9

Query string: Next: Cc1cc(Nc2nc(N3CC4CC3CN4Cc3ccccc3)nc3ccccc23)n[nH]1 (centres unmarked) [compound 27f]
Result string: 113

Query string: Another molecule to check: c1ccc2c(Nc3cc(C4CC4)[nH]n3)nc(N3CC4CCC3CN4)nc2c1 (centres unmarked)
Result string: 3.9

Query string: Entry to check: Cc1cc(Nc2nc(N3CC4CC3CN4C(=O)c3ccccc3)nc3ccccc23)n[nH]1 (centres unmarked) [compound 27d]
Result string: 48.3

Query string: # iterate: CN(C)S(=O)(=O)c1ccc(Nc2nc(Nc3ccc(C#N)cc3)nc3ccccc23)cc1 [compound 25b]
Result string: 58.1

Query string: Then this molecule: `O=C(c1ccccc1)N1CC=C(c2nc(Nc3cc(C4CC4)[nH]n3)c3ccccc3n2)CC1`
Result string: 49.7

Query string: Thanks! And CC(C)C(=O)N1CC2CC1CN2c1nc(Nc2cn[nH]c2)c2ccccc2n1 (centres unmarked) [compound 28c] ?
Result string: 85.3

Query string: Cool, now `CC(C)(C)OC(=O)N1CC2(CCN(c3nc(Nc4cc(C5CC5)[nH]n4)c4ccccc4n3)CC2)C1`
Result string: 129

Query string: Please do the same for `COC(=O)c1ccc(Nc2nc(Nc3cc(C4CC4)[nH]n3)c3ccccc3n2)cc1` as well.
Result string: 79.4

Query string: And the next one, Cc1ccc(S(=O)(=O)N2CC3CC2CN3c2nc(Nc3cc(C4CC4)[nH]n3)c3ccccc3n2)cc1F (centres unmarked) [compound 15w] ?
Result string: 107

Query string: How about this molecule: CN(C)S(=O)(=O)c1ccc(Nc2nc(Nc3ccc(CC#N)cc3)nc3ccccc23)cc1 [compound 25a]
Result string: 71.6

Query string: What do you get for O=S(=O)(c1cccc2cccnc12)N1CC2CC1CN2c1nc(Nc2cc(C3CC3)[nH]n2)c2ccccc2n1 (centres unmarked) [compound 15z] ?
Result string: 111

Query string: Repeat for the following molecule: CC(C)NC(=O)N1CC2CC1CN2c1nc(Nc2cc(C3CC3)[nH]n2)c2ccccc2n1 (centres unmarked) [compound 15b]
Result string: 77.2

Query string: Item: `Brc1ccc(Nc2nc(Nc3cc(C4CC4)[nH]n3)c3ccccc3n2)cc1`
Result string: 68.2

Query string: Query `C1=C(c2nc(Nc3cc(C4CC4)[nH]n3)c3ccccc3n2)CCNC1` next
Result string: 80.8

Query string: How about `Clc1nc(Nc2cc(C3CC3)[nH]n2)c2ccccc2n1` ?
Result string: 93.3

Query string: Lookup c1ccc(CN2CC3CC2CN3c2nc(Nc3cc(C4CC4)[nH]n3)c3ccccc3n2)cc1 (centres unmarked) [compound 15g]
Result string: 42.9

Query string: CC(C)CN1CC2CC1CN2c1nc(Nc2cn[nH]c2)c2ccccc2n1 (centres unmarked) [compound 28e] , same question.
Result string: 105

Query string: Same again, this time with `CC(C)(C)OC(=O)N1C2CCC1CN(c1nc(Nc3cc(C4CC4)[nH]n3)c3ccccc3n1)C2`
Result string: 101

Query string: Quick one: `NCCCNC(=O)c1ccc(Nc2nc(Nc3cc(C4CC4)[nH]n3)c3ccccc3n2)cc1`
Result string: 101

Query string: Now the same for O=C(c1ccccc1)N1CC2CC1CN2c1nc(Nc2cc(C3CC3)[nH]n2)c2ccccc2n1 (centres unmarked) [compound 15e]
Result string: 31.3

Query string: // same read-out, input: `NC(=O)c1ccc(Nc2nc(Nc3cc(C4CC4)[nH]n3)c3ccccc3n2)cc1`
Result string: 18.4

Query string: Would you mind doing Cc1cc(Nc2nc(N3CC4CC3CN4C(=O)NC(C)C)nc3ccccc23)n[nH]1 (centres unmarked) [compound 27a] as well?
Result string: 90.7
